Biological target: Nuclear receptor subfamily 1 group I member 3 (Homo sapiens) (UniProt Q14994)
Sequence (Q14994 whole entry, looked up): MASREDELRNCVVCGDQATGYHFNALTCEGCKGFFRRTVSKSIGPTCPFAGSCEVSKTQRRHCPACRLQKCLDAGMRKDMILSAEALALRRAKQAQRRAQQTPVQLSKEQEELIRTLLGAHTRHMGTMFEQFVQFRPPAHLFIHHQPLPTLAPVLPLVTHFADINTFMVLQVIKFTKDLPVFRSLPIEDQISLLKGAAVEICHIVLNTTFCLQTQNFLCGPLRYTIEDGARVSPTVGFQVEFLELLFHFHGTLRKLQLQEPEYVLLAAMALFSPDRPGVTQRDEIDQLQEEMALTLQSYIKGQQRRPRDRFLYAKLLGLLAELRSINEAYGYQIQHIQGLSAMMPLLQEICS
Assay: qHTS assay to identify small molecule agonists of the constitutive androstane receptor (CAR) signaling pathway (AID 1224839); further: nearly all actives have a fitted effect of over 15% in size;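 on activation: HepG2 cells stably carrying human CAR and a CYP2B6 luciferase reporter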
Conditions: HepG2 hCAR CYP2B6-luciferase, agonist mode, 24 h; series mostly up to 92.4 µM
Results filed as inconclusive are left out. Activity calls are given as the source filed them. The call rests on the fitted dose curve; in most records, active means well fitted activation curve with a large enough effect in the repeat runs; inconclusive means weak or mixed curves; inactive means no such curve, though single readings can be large or run the other way.
Give one outcome, nothing more. List: Yes for active, No for inactive

compound=c1cncc([C@@H]2CCCCN2)c1 answer_label=No

Problem: Dear all, I need the recorded test outcome for CC(C)(C1CCC(O)CC1)C1CCC(O)CC1 (centres undefined) , thank you.
Solution: Yes

Problem: Dear all, I need the recorded test outcome for Cn1c(CCCC(=O)O)nc2cc(N(CCCl)CCCl)ccc21 , thank you.
Solution: No

Problem: Dear all, I need the recorded test outcome for O=C(CCl)NCO , thank you.
Solution: No

Problem: Dear all, I need the recorded test outcome for [P]#[In] , thank you.
Solution: No

Problem: Dear all, I need the recorded test outcome for CCCC(C)C1(CC)C(=O)N=C(S)NC1=O (centres undefined) , thank you.
Solution: No

Problem: Dear all, I need the recorded test outcome for ClCCN1CCCC1 , thank you.
Solution: No

Problem: Dear all, I need the recorded test outcome for CCC(=O)c1ccc(Cl)cc1 , thank you.
Solution: No

Problem: Dear all, I need the recorded test outcome for CCN(CCO)CCO , thank you.
Solution: No

Problem: Dear all, I need the recorded test outcome for O=C(Cl)C(Cl)(Cl)Cl , thank you.
Solution: No

###

Target: Aryl hydrocarbon receptor (Homo sapiens)
Assay: qHTS assay to identify small molecule that activate the aryl hydrocarbon receptor (AhR) signaling pathway (AID 743085); further: nearly all actives have a fitted effect of over 15% in size;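 on activation: HG2L7.5c1 human HepG2 liver cells with stably integrated DRE-driven firefly reporter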
Details: HepG2 AhR-luc (HG2L7.5c1), luciferase, 24 h; series mostly up to 70.3 µM
Results filed as inconclusive are left out. Activity calls are given as the source filed them. Calls follow the shape of the dose curve; as a rule, active = well fitted activation curve with a large enough effect in the repeat runs; inconclusive = weak or mixed curves; inactive = no such curve, though single readings can be large or run the other way.
Give one outcome, nothing more. List: active, inactive

compound="CC(O)CCl (centres undefined)" answer_label=inactive
compound=CS(=O)(=O)c1ccc(C(=O)C2C(=O)CCCC2=O)c(Cl)c1COCC(F)(F)F answer_label=inactive
compound=CC#Cc1cc(C)nc(Nc2ccccc2)n1 answer_label=active

Problem: Dear all, I need the recorded test outcome for O=C(Cl)CCl , thank you.
Solution: inactive

###

Target: Cytochrome P450 2C9 (Homo sapiens)
Assay: Cytochrome P450 Family 2 Subfamily C Member 9 (CYP2C9) small molecule antagonists: luciferase reporter qHTS assay (AID 1671198); further: nearly all actives have a fitted effect of over 50% in size
Conditions: P450-Glo CYP2C9 enzyme assay, luciferin luminescence; series mostly up to 115 µM
Inconclusive results are not listed. Active and inactive are the calls of the source. Calls come from the whole dose curve; as a rule, active = well fitted inhibition curve with a large enough effect in the repeat runs; inconclusive = weak or mixed curves; inactive = no such curve, though single readings can be large or run the other way.
Give one outcome, nothing more. List: active, inactive

# example entries with known answers
molecule="CC(C)C(C)(N)C#N (stereo not given)" tested_system="Cytochrome P450 2C9 (Homo sapiens)" answer_label=inactive
molecule="COc1cc(CC(C)N)cc(OC)c1OC (stereo not given)" tested_system="Cytochrome P450 2C9 (Homo sapiens)" answer_label=inactive
molecule="C(COCC1CO1)OCC1CO1 (stereo not given)" tested_system="Cytochrome P450 2C9 (Homo sapiens)" answer_label=inactive

Problem: Dear all, I need the recorded test outcome for CCC(C(N)=O)N1CCCC1=O (stereo not given) , thank you.
Solution: inactive

Problem: Dear all, I need the recorded test outcome for O=S1(=O)OCCO1 , thank you.
Solution: inactive

Problem: Dear all, I need the recorded test outcome for N[C@@H](Cc1ccc(Oc2cc(I)c(O)c(I)c2)c(I)c1)C(=O)O , thank you.
Solution: active

Problem: Dear all, I need the recorded test outcome for ClCCCCl , thank you.
Solution: inactive

Problem: Dear all, I need the recorded test outcome for COP(=O)(O)OC , thank you.
Solution: inactive

Problem: Dear all, I need the recorded test outcome for CCC(=O)OC1(c2ccccc2)CCN(C)CC1 , thank you.
Solution: inactive

Problem: Dear all, I need the recorded test outcome for ClC1=C(Cl)C2(Cl)C(CBr)CC1(Cl)C2(Cl)Cl (stereo not given) , thank you.
Solution: inactive

All values here come from PubChem BioAssay (Tox21).
